Where do these numbers come from? They come from patent US20180021429A1.

Target: T1, human FSTL1 (construct not stated) (human, UniProt Q12841 21-308)
T1 construct: also called human FSTL1 antigen; FSTL1 (R&D Systems, Inc. Cat#1694-FN-050)
T1 sequence: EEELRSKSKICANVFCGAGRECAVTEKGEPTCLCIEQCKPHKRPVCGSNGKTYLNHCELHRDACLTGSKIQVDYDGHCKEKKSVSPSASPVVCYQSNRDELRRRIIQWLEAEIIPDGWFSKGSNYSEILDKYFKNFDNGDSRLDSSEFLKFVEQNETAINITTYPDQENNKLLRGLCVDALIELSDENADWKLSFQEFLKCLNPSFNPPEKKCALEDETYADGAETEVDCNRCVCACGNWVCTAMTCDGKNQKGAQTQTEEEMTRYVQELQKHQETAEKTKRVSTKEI
Assay: SPR (Biacore T-200), antibody on Human Antibody Capture Kit, human FSTL1 0 to 20 µg/ml
pKd: −log10 of the molar value.

binder | pKd
humanized #6-55 antibody H(2)-L(3) (IgG1 type) (antibody, V domains shown, Human IgG1 constant region; expressed in HEK293; also called h#6-55 H(2)-L(3)) VH: EVQLLESGGGLVQPGGSLRLSCAASGFTFSSVTMQWVRQAPGKGLEFVSSVCSGSSTYYAPAVKGRFTISRDNSKNTVYLQMNSLRAEDTAVYYCAKIAGRARWSCTSAAYNIDAWGQGTLVTVSS VL: SYELTQPPSVSVSPGQTARITCSGGGNNYGWYQQKPGQAPVTVIYYNDNRPSGIPERFSGSNSGNTATLTISGVQAEDEADYYCGSWDSNTDSGIFGGGTKLTVLG | 7.35
humanized #6-55 antibody H(3)-L(1) (IgG1 type) (antibody, V domains shown, Human IgG1 constant region; expressed in HEK293; also called h#6-55 H(3)-L(1)) VH: EVQLLESGGGLVQPGGSLRLSCAASGFTFSSVTMQWVRQAPGKGLEFVASVCSGSSTYYAPAVKGRVTISRDNSKNTVYLQMNSLRAEDTAVYYCAKIAGRARWSCTSAAYNIDAWGQGTLVTVSS VL: SYELTQPPSVSVSPGQTARITCSGGGNNYGWYQQKPGQAPVTVIYYNDNRPSGIPERFSGSNSGSTTTLTISGVQAEDEADYYCGSWDSNTDSGIFGGGTKLTVLG | 7.57
humanized #6-55 antibody H(2)-L(2) (IgG1 type) (antibody, V domains shown, Human IgG1 constant region; expressed in HEK293; also called h#6-55 H(2)-L(2)) VH: EVQLLESGGGLVQPGGSLRLSCAASGFTFSSVTMQWVRQAPGKGLEFVSSVCSGSSTYYAPAVKGRFTISRDNSKNTVYLQMNSLRAEDTAVYYCAKIAGRARWSCTSAAYNIDAWGQGTLVTVSS VL: SYELTQPPSVSVSPGQTARITCSGGGNNYGWYQQKPGQAPVTVIYYNDNRPSGIPERFSGSTSGSTTTLTISGVQAEDEADYYCGSWDSNTDSGIFGGGTKLTVLG | 7.95
humanized #6-55 antibody H(3)-L(3) (IgG1 type) (antibody, V domains shown, Human IgG1 constant region; expressed in HEK293; also called h#6-55 H(3)-L(3)) VH: EVQLLESGGGLVQPGGSLRLSCAASGFTFSSVTMQWVRQAPGKGLEFVASVCSGSSTYYAPAVKGRVTISRDNSKNTVYLQMNSLRAEDTAVYYCAKIAGRARWSCTSAAYNIDAWGQGTLVTVSS VL: SYELTQPPSVSVSPGQTARITCSGGGNNYGWYQQKPGQAPVTVIYYNDNRPSGIPERFSGSNSGNTATLTISGVQAEDEADYYCGSWDSNTDSGIFGGGTKLTVLG | 7.60
